TEST_METHOD_NOTES: Nuclear factor erythroid 2-related factor 2/antioxidant responsive element (Nrf2/ARE) small molecule agonists: qHTS cell viability counter screen in human keratinocytes (AID 1919968); further: nearly all actives have a fitted effect of over 55% in size
RECORDED_CONDITIONS: KeratinoSens HaCaT ARE cells viability, CellTiter-Fluor, 24 h; series mostly up to 92.4 µM
Inconclusive results are not listed. Activity calls are given as the source filed them. The call rests on the fitted dose curve; in most records, active means well fitted cell-killing curve with a large enough effect in the repeat runs; inconclusive means weak or mixed curves, or effect the other way; inactive means flat fitted curve, though single readings scatter.
Classes used: 1 (active), 0 (inactive)

molecule=O=[N+]([O-])c1cccc(O)c1 category_label=0
molecule="CCC(C)Cl (stereo not given)" category_label=0
molecule=ClCCOCCCl category_label=0
molecule=CCCC[N+]1(C)CCCC1 category_label=0
molecule="COP(=O)(NC(C)=O)SC (stereo not given)" category_label=0
molecule=C#C[C@]1(O)CC[C@H]2[C@@H]3CCC4=CC(=O)CC[C@]4(C)[C@H]3CC[C@@]21C category_label=0
molecule=C[N+](C)(C)CC(=O)[O-] category_label=0
molecule="CC(C)C(=O)OCC(C)(C)C(OC(=O)C(C)C)C(C)C (stereo not given)" category_label=0
molecule=OCC(O)CO category_label=0
molecule=Clc1ccccc1Cl category_label=0
molecule=CCC/C=N/O category_label=0
molecule=CC(C)(C)OOC(=O)c1ccccc1 category_label=0
molecule=CCNc1nc(NC(C)(C)C)nc(SC)n1 category_label=0
molecule=COC(=O)c1ccccc1C(=O)OC category_label=0
molecule=O=S(=O)(c1ccc(O)cc1)c1ccc(O)cc1 category_label=0
molecule=CCCC(C)(COC(N)=O)COC(N)=O category_label=0
molecule=CNC(C)(C)Cc1ccccc1 category_label=0
molecule="CCC1(c2ccc(N)cc2)CCC(=O)NC1=O (stereo not given)" category_label=0
molecule=Clc1ccc(C(Cl)(Cl)Cl)c(Cl)c1 category_label=0
molecule="CC(C(=O)c1ccccc1)N(C)C (stereo not given)" category_label=0
molecule=CC1(C)C(=O)NC(=O)NC1=O category_label=0
molecule=CC(C)C#N category_label=0
molecule="Cn1cc[n+](C)c1 (tested in a mixture with another compound)" category_label=0
molecule=CCCCCCn1cc[n+](C)c1 category_label=0
molecule="O=c1oc2ccccc2c(O)c1C(CC(O)c1ccc(-c2ccc(Br)cc2)cc1)c1ccccc1 (stereo not given)" category_label=0
molecule=CCCCCCCCCCBr category_label=0
molecule=Cc1ccc(N=C=O)cc1N=C=O category_label=0
molecule=O=c1[nH]c(=O)n(Cl)c(=O)n1Cl category_label=0
molecule=c1ccc2c(c1)sc1ccccc12 category_label=0
molecule=CCC(=O)OC1(c2ccccc2)CCN(C)CC1 category_label=0
molecule="OC(Cc1ccccc1Cl)(Cn1cncn1)C1(Cl)CC1 (stereo not given)" category_label=0
molecule="CC(C)C1(C)N=C(c2ncccc2C(=O)O)NC1=O (stereo not given)" category_label=0
molecule=O=C/C=C/c1ccccc1 category_label=0
molecule="OCC1CO1 (stereo not given)" category_label=0
molecule=COc1ccc2c(c1OC)C(=O)O[C@@H]2[C@H]1c2cc3c(cc2CCN1C)OCO3 category_label=0
molecule="OC(c1ccc(Cl)cc1)(c1cncnc1)c1ccccc1Cl (stereo not given)" category_label=0
molecule=ClCCBr category_label=0
molecule=c1ccc(N2CCNCC2)cc1 category_label=0
molecule=C1=Cc2cccc3cccc1c23 category_label=0
molecule=BrC(Br)Br category_label=0
molecule=Oc1c(Cl)c(Cl)c(Cl)c(Cl)c1Cl category_label=1
molecule=O=Cc1ccccc1 category_label=0
molecule=[CH3][Sn]([Cl])([Cl])[Cl] category_label=0
molecule=COC(=O)c1ccc(CBr)cc1 category_label=0
molecule=COC(=O)[C@@H](N)CCCN/C(N)=N/[N+](=O)[O-] category_label=0
molecule="CC(Cl)CCl (stereo not given)" category_label=0
molecule=Nc1nc(N)nc(Cl)n1 category_label=0
molecule=CCC(C)(CC)c1cc(NC(=O)c2c(OC)cccc2OC)on1 category_label=0
molecule=CS(=O)(=O)Cl category_label=0
molecule=Oc1ccc(Cl)cc1 category_label=0
molecule=O=[N+]([O-])O[C@H]1CO[C@H]2[C@@H]1OC[C@H]2O[N+](=O)[O-] category_label=0
molecule=CC(Cl)Cl category_label=0
molecule=CCBr category_label=0
molecule="COP(=O)(OC)C(O)C(Cl)(Cl)Cl (stereo not given)" category_label=0
molecule=C1CN2CCC1CC2 category_label=0
